Assay Summary: Induction of oxidative burst in polymorphonuclear leukocytes (unknown origin) isolated from buffy coat at 10 uM after 40 mins by fluorescence assay relative to ingenol mebutate
Format: functional
Property Name: Emax at 10 µM (%)
Report the figure in % without appending any unit label.

Record excerpt, results attached:
C/C=C(/C)C(=O)O[C@H]1C(C)=C[C@@]23C(=O)[C@H]([C@H]4[C@@H](C[C@H]2C)C4(C)C)[C@H]2O[C@@]2(CO)[C@@H](O)[C@]13O : 114
CC1=C[C@]23C(=O)[C@@H](C=C(CO)[C@@H](O)[C@]2(O)[C@H]1OC(=O)C1CC1)[C@H]1[C@@H](C[C@H]3C)C1(C)C : 112
CC1=C[C@]23C(=O)[C@@H](C=C(CO)[C@@H](O)[C@]2(O)[C@H]1OC(=O)c1ccccc1)[C@H]1[C@@H](C[C@H]3C)C1(C)C : 110
C=C(CC)C(=O)O[C@H]1C(C)=C[C@]23C(=O)[C@@H](C=C(CO)[C@@H](O)[C@]12O)[C@H]1[C@@H](C[C@H]3C)C1(C)C : 102

The record that follows has no Emax at 10 µM shown yet.
Consider the compound `C/C=C(/C)C(=O)O[C@H]1C(C)=C[C@]23C(=O)[C@@H](C=C(CO)[C@@H](OC)[C@]12O)[C@H]1[C@@H](C[C@H]3C)C1(C)C` and give its measured Emax at 10 µM.
119

* * *

Assay Summary: Induction of oxidative burst in polymorphonuclear leukocytes (unknown origin) isolated from buffy coat at 10 uM after 40 mins by fluorescence assay relative to ingenol mebutate
Type: functional
Property Name: Emax at 10 µM (%)
Report the figure in % without appending any unit label.

Record excerpt, results attached:
CC1=C[C@]23C(=O)[C@@H](C=C(CO)[C@@H](O)[C@@]24OC(=O)O[C@@H]14)[C@H]1[C@@H](C[C@H]3C)C1(C)C : 124
C=C(C)C(=O)O[C@H]1C(C)=C[C@]23C(=O)[C@@H](C=C(CO)[C@@H](O)[C@]12O)[C@H]1[C@@H](C[C@H]3C)C1(C)C : 114
CC1=C[C@]23C(=O)[C@@H](C=C(CO)[C@@H](O)[C@]2(O)[C@H]1OC(=O)C1CCC1)[C@H]1[C@@H](C[C@H]3C)C1(C)C : 111

Consider the compound `CC1=C[C@]23C(=O)[C@@H](C=C(CO)[C@@H](O)[C@]2(O)[C@H]1OC(=O)C1(C)CCCCC1)[C@H]1[C@@H](C[C@H]3C)C1(C)C` and give its measured Emax at 10 µM.
127

* * *

Test system: Keratinocyte
Assay Summary: Induction of TNFalpha release in human primary epidermal keratinocytes after 6 hrs relative to ingenol mebutate
Format: functional
Property Name: Emax (%)
Report the figure in % without appending any unit label.

Record excerpt, results attached:
CC1=C[C@]23C(=O)[C@@H](C=C(CO)[C@@H](O)[C@]2(O)[C@H]1OC(=O)C(C)C)[C@H]1[C@@H](C[C@H]3C)C1(C)C : 72
CCCCCCCCCC(=O)O[C@H]1C(C)=C[C@]23C(=O)[C@@H](C=C(CO)[C@@H](O)[C@]12O)[C@H]1[C@@H](C[C@H]3C)C1(C)C : 96
CC1=C[C@]23C(=O)[C@@H](C=C(CO)[C@@H](O)[C@]2(O)[C@H]1OC(=O)C1CCCCC1)[C@H]1[C@@H](C[C@H]3C)C1(C)C : 47

Consider the molecule `CC1=C[C@]23C(=O)[C@@H](C=C(CO)[C@@H](O)[C@]2(O)[C@H]1OC(=O)C12C[C@@H]4C[C@@H](C[C@H]1C4)C2)[C@H]1[C@@H](C[C@H]3C)C1(C)C` and give its measured Emax.
55

Now this one: `CC1=C[C@]23C(=O)[C@@H](C=C(CO)[C@@H](O)[C@]2(O)[C@H]1OC(=O)C1CCCC1)[C@H]1[C@@H](C[C@H]3C)C1(C)C`
58

Now this one: `C/C=C(/C)C(=O)O[C@H]1C(C)=C[C@]23C(=O)[C@@H](C=C(CO)[C@@H](OC)[C@]12O)[C@H]1[C@@H](C[C@H]3C)C1(C)C`
131
